# Tested on: Nrk
# experiment: Relative gene expression in neural differentiation culture of murine embryonic stem cells (ES-D3), microarray
# setupConditions: exposed from day 3, harvested day 4 (24 h exposure); ratio to reference value; concentration coded in label (L low, H high, Table 3)
attributeMeasured: relative expression value Nrk

> print(dat)
                                   molecule              attributemeasured  testvalue
1         O=C1NC(=O)C(c2ccccc2)(c2ccccc2)N1  relative expression value Nrk      0.766
2  NC(=O)N1c2ccccc2C=Cc2ccccc21 [cbzL, Carbamazepine]  relative expression value Nrk      1.055
3                                      CC=O  relative expression value Nrk      0.909
4                           CCCC(CCC)C(=O)O  relative expression value Nrk      0.914
